Read-out record for GST-JAK1(866-1154) (Homo sapiens (Human)): IC50

Solved entries (count: 8):
{"smi": "CNS(=O)(=O)C[C@H]1CC[C@H](n2cnc3cnc4[nH]ccc4c32)CC1", "IC50": "0.01 µM"}
{"smi": "CNS(=O)(=O)C[C@H]1CC[C@H](Nc2nc(N)ncc2C)CC1", "IC50": "> 10 µM"}
{"smi": "CNS(=O)(=O)C[C@H]1CC[C@H](Oc2c(C#N)cnc3sccc23)CC1", "IC50": "> 10 µM"}
{"smi": "CNS(=O)(=O)C[C@H]1CC[C@H](N(C)c2ncnc3[nH]c(Cc4ccccc4)nc23)CC1", "IC50": "> 10 µM"}
{"smi": "CNS(=O)(=O)C[C@H]1CC[C@H](N(C)c2ncnc3[nH]ncc23)CC1", "IC50": "> 10 µM"}
{"smi": "CNS(=O)(=O)C[C@H]1CC[C@H](Nc2ncnc3sccc23)CC1", "IC50": "> 10 µM"}
{"smi": "CNS(=O)(=O)C[C@H]1CC[C@H](N(C)c2ncnc3[nH]c(-c4ccccc4)nc23)CC1", "IC50": "> 10 µM"}
{"smi": "CNS(=O)(=O)C[C@H]1CC[C@H](Nc2ccnc(N)n2)CC1", "IC50": "> 10 µM"}

GET /values?readout=IC50&system=GST-JAK1(866-1154) (Homo sapiens (Human))&item= CNS(=O)(=O)C[C@H]1CC[C@H](N(C)c2ccnc(N)n2)CC1
> 10 µM

Value wanted: IC50 (GST-JAK1(866-1154) (Homo sapiens (Human))) of entry CNS(=O)(=O)C[C@H]1CC[C@H](N(C)c2c(C#N)cnn3cccc23)CC1
0.93 µM

Give the reported IC50 for CNS(=O)(=O)C[C@H]1CC[C@H](Nc2nc(N)ncc2-c2ccccc2)CC1 (system: GST-JAK1(866-1154) (Homo sapiens (Human))).
Sequence (P23458 866-1154): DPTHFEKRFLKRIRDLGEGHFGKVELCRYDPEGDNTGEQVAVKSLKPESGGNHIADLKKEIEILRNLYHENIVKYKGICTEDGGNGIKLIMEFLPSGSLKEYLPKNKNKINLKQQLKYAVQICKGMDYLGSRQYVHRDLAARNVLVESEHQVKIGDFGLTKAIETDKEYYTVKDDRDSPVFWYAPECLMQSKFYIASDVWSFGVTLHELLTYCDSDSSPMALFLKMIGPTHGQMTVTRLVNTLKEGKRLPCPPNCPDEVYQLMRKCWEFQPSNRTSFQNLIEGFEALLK
> 10 µM

Reference source for all entries: patent US10059709B2
